target: UniProt Q04206; assay: Inhibition of NFkappa p65 isolated from nuclear extract of human HeLa cells by ELISA
Sequence (Q04206 whole entry): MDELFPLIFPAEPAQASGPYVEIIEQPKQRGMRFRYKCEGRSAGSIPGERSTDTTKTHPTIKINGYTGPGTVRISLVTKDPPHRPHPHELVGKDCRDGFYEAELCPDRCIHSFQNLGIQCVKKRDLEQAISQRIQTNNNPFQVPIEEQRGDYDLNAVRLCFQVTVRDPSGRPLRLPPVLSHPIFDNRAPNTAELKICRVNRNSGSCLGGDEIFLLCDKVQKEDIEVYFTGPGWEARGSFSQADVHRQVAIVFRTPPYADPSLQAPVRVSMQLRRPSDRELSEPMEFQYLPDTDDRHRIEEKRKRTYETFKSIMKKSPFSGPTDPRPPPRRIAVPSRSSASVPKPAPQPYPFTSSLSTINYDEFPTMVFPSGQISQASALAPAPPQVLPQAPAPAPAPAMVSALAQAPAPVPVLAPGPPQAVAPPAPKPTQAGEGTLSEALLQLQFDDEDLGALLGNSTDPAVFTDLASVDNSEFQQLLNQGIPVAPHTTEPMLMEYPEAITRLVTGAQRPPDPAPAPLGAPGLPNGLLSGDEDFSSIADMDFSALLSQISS
reported.property: pIC50
Give bare numbers, as −log10 of the molar value.

C[C@H]1C/C=C\C(=O)[C@@H](O)[C@@H](O)C/C=C/c2cc(O)cc(O)c2C(=O)O1: 6.12
COc1cc(O)c2c(c1)/C=C/C[C@H](O)[C@H](O)C(=O)/C=C/C[C@H](C)OC2=O: 4.94

Please report the recorded pIC50 for COc1cc(O)c2c(c1)/C=C/C[C@H](O)[C@H](O)C(=O)/C=C\C[C@H](C)OC2=O . 6.60

* * *

Field: MIC. Provide a value for each of the compounds that follow.
test system: Staphylococcus aureus; assay: Antimicrobial activity against Staphylococcus aureus by agar plate diffusion assay; type: functional

Example entries and their recorded answers appear below.
COc1cc(O)c2c(c1)/C=C/C[C@H](O)[C@H](O)C(=O)CCC[C@H](C)OC2=O: > 500 µg/mL
COc1cc(O)c2c(c1)/C=C/C[C@H](O)[C@H](O)C(=O)/C=C/C[C@H](C)OC2=O: > 500 µg/mL
C[C@H]1C/C=C\C(=O)[C@@H](O)[C@@H](O)C/C=C/c2cc(O)cc(O)c2C(=O)O1: > 500 µg/mL

Then this compound:
Please report the recorded MIC for COc1cc(O)c2c(c1)/C=C/C[C@H](O)[C@H](O)[C@H](O)/C=C/C[C@H](C)OC2=O . > 500 µg/mL
